Recorded activity coefficient, one value per entry.
assay: activity coefficient (dimensionless); of the first substance listed, at infinite dilution; xn = mol fraction of the nth substance listed; conditions: 348.15 K; 101 kPa; Liquid; Chromatography; x1 = 0
Please give only the number in your answer, with no unit.

These recorded examples may help you get a feel for the data.
c1ccsc1 [thiophene] + CCCC[N+]1(C)CCCC1.N#C[B-](C#N)(C#N)C#N
0.702
C1CCCC1 [cyclopentane] + CCCC[N+]1(C)CCCC1.N#C[B-](C#N)(C#N)C#N
5.18
C=CCCCCCCCC [1-decene] + CCCC[N+]1(C)CCCC1.N#C[B-](C#N)(C#N)C#N
26.1
C#CCCCC [1-hexyne] + CCCC[N+]1(C)CCCC1.N#C[B-](C#N)(C#N)C#N
2.63
Cc1ccccc1C [1,2-dimethylbenzene] + CCCC[N+]1(C)CCCC1.N#C[B-](C#N)(C#N)C#N
1.41

In the following, a different compound is considered.
Ask: Give reported activity coefficient value for COC(C)(C)C [2-methoxy-2-methylpropane] + CCCC[N+]1(C)CCCC1.N#C[B-](C#N)(C#N)C#N
Reply: 2.48
